MIC listing for selected compounds.
- Tested on: C. acutatum (BCC 58146)
- assay.text: microbe, parasite or virus in culture
- Assay type: cell-based
- applied.conditions: Colletotrichum acutatum, read-out: Anti-phytopathogenic fungal (MIC, μM) C. acutatum

Worked set:
COc1cc2oc3cc(C)cc(O)c3c(=O)c2c(C)c1O [Compound 3]: > 175 µM
COc1cc(O)c2c(=O)c3c(O)cc(C)cc3oc2c1OC [Compound 2]: > 165 µM

Now examine the next entry.
Checklist item: MIC tested on C. acutatum (BCC 58146), entry C[C@@H]1[C@H](O)[C@@H](C)/C=C/C=C/C=C/C=C/C=C/C=C/C=C/[C@H](O[C@@H]2O[C@H](C)[C@@H](O)[C@H](N)[C@@H]2O)C[C@@H]2O[C@](O)(C[C@@H](O)C[C@@H](O)[C@H](O)CC[C@@H](O)C[C@@H](O)CC(=O)O[C@H]1C)C[C@H](O)[C@H]2C(=O)O [Amphotericin B, reference compound] , value?
3.4 µM
